Answer each item with its documented koff.
# Tested system: T1, Cynomolgus CD3εδ Fc heterodimer (Cy CD3ε Fc / CD3δ Fc-HIS) (cynomolgus, UniProt Q95LI8 22-100)
# T1 chain 1: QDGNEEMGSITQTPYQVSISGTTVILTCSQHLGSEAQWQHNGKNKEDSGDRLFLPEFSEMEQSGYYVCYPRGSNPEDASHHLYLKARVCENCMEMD
# T1 chain 2: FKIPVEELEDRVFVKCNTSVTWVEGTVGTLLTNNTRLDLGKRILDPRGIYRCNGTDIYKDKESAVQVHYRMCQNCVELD
# Test name: BLI (Octet), IgG on AHC sensor, pH 6.0
Hi! Could you send only the number? It should be in s⁻¹, unit omitted.

Look up koff for this binder: SAD10320_P01_B03 (ADI-57354) (antibody, V domains shown, IgG; also called Ab61) VH: QVQLVQSGAEVKKPGASVKVSCKASGFNIKDYYMHWVRQAPGQRLEWMGWIDLENANTIYDAKFQGRVTITRDTSASTAYMELSSLRSDDTAVYYCARDQHGRYFYDVWGQGTLVTVSS VL: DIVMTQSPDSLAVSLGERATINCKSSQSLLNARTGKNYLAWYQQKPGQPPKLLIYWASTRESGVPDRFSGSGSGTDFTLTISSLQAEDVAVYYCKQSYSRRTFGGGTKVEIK
0.0204

Look up koff for this binder: SAD10319_P01_C02 (ADI-57302) (antibody, V domains shown, IgG; also called Ab238) VH: QVQLVQSGAEVKKPGASVKVSCKASGYTFTEYNMHWVRQAPGQRLEWMGWINPLTGNTLYSQKFQGRVTITRDTSASTAYMELSSLRSEDTAVYYCARDAYHHYFYDVWGQGTLVTVSS VL: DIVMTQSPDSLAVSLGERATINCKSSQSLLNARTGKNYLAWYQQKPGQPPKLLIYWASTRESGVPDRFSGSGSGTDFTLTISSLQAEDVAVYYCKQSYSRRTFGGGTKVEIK
0.0251

Look up koff for this binder: SAD10319_P06_A10 (ADI-57419) (antibody, V domains shown, IgG; also called Ab148) VH: QVQLVQSGAEVKKPGASVKVSCKASGYTFTGYEMHWVRQAPGQRLEWMGWINPVTGATAYSQKFQGRVTITRDTSASTAYMELSSLRSEDTAVYYCARDAYGHYFYDHWGQGTLVTVSS VL: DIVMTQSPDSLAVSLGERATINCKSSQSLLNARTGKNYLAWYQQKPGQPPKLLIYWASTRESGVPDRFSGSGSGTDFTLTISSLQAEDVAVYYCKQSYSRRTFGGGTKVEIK
0.0246
